B1: FBXO3 (parent)
chain: AGGFQQRQGLKYCLPLTFCIHTGL

- Variants of: B1
- method.summary: protein stability index of a GFP-peptide fusion (GPS, HEK-293T) (PSI 1-6); higher = more stable;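 note: lentivirally expressed fusions sorted by FACS into six bins by GFP to DsRed ratio, PSI derived from sequencing read proportions per bin multiplied by bin number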
- details: c terminus: a fixed tail appended
Overview of reported protein stability index across a group of variants:
Answer as a number with no unit attached.

# lookup: protein stability index of `F4P`
2.09
